// provenance: ChEMBL document CHEMBL3994644

This section lists Ki readings for Prostaglandin F2-alpha receptor (Homo sapiens).

chemical_structure: C[C@H](NC(=O)c1cc(Cl)cnc1Oc1cccc(F)c1)c1ccc(C(=O)O)cc1
measurement_target: Prostaglandin F2-alpha receptor (Homo sapiens)
Sequence (P43088 whole entry): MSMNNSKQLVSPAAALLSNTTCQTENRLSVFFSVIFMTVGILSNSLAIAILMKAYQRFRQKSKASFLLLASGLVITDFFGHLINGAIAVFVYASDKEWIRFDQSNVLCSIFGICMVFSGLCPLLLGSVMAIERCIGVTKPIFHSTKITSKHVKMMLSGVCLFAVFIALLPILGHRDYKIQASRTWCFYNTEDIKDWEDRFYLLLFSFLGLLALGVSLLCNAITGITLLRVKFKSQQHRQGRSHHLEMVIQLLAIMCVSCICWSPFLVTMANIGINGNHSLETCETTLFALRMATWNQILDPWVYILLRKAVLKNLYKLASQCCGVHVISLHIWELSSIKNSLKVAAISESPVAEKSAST
Ki: > 6 µM
//
chemical_structure: CCc1nc2c(C)nc(C)cc2n1-c1ccc(CCNC(=O)NS(=O)(=O)c2ccc(C)cc2)cc1
measurement_target: Prostaglandin F2-alpha receptor (Homo sapiens)
Ki: > 5 µM

* * *

# method: Volume of distribution at steady state in Beagle dog at 1 mg/kg, iv
# Assay type: ADME, organism-based, Canis lupus familiaris
# experimental_parameters: in vivo, read-out: Vdss

chemical_structure: C[C@H](NC(=O)c1cc(Cl)cnc1Oc1cccc(F)c1)c1ccc(C(=O)O)cc1
Vd, L/kg: 1.21

* * *

pIC50: −log10 of the molar value.
Measurement record for Prostaglandin E2 receptor EP1 subtype (Homo sapiens); quantity recorded: pIC50.

chemical_structure: O=C(O)c1ccc(CNC(=O)c2cc(F)cnc2Oc2ccc(F)cc2)cc1
pIC50: < 4.70
--
chemical_structure: C[C@H](NC(=O)c1cc(Cl)cnc1Oc1ccc(F)cc1)c1ccc(C(=O)O)cc1
pIC50: < 4.70

* * *

# method: Total clearance in Sprague-Dawley rat at 1 mg/kg, iv
# Assay type: ADME, organism-based
# experimental_parameters: in vivo
reported_endpoint: clearance (mL/min/kg)

chemical_structure: C[C@H](NC(=O)c1cc(Cl)cnc1Oc1cccc(F)c1)c1ccc(C(=O)O)cc1
numeric_readout: 1.75

* * *

# Tested on: Rattus norvegicus
# method: Analgesic activity in po dosed rat assessed as inhibition of carrageenan-induced mechanical hyperalgesia measured at 1 hr post dose
# Format: functional
# experimental_parameters: read-out: MED
A collection of compounds and their measured minimal effective dose

chemical_structure: C[C@H](NC(=O)c1cc(Cl)ccc1Oc1ccc(F)cc1)c1ccc(C(=O)O)cc1
minimal effective dose: 10 mg/kg
//
chemical_structure: CCc1nc2c(C)nc(C)cc2n1-c1ccc(CCNC(=O)NS(=O)(=O)c2ccc(C)cc2)cc1
minimal effective dose: 30 mg/kg
//
chemical_structure: C[C@H](NC(=O)c1cc(Cl)ccc1Oc1cccc(F)c1)c1ccc(C(=O)O)cc1
minimal effective dose: 10 mg/kg
//
chemical_structure: C[C@H](NC(=O)c1cc(Cl)cnc1Oc1cccc(F)c1)c1ccc(C(=O)O)cc1
minimal effective dose: 1 mg/kg
//
chemical_structure: C[C@H](NC(=O)c1cc(Cl)cnc1Oc1ccc(F)cc1)c1ccc(C(=O)O)cc1
minimal effective dose: 10 mg/kg

* * *

# measurement_target: Prostaglandin E2 receptor EP4 subtype (Homo sapiens)
# method: Antagonist activity at human EP4 receptor expressed in HEK293 cells assessed as inhibition of PGE2-induced cAMP level by HTS assay
# Assay type: functional, cell-based
reported_endpoint: log10 IC50 (log10 of the value in nM)

chemical_structure: C[C@H](NC(=O)c1cc(Cl)cnc1Oc1ccccc1F)c1ccc(C(=O)O)cc1
numeric_readout: 1.79
//
chemical_structure: C[C@H](NC(=O)c1cc(Cl)cnc1Oc1cccc(C(F)(F)F)c1)c1ccc(C(=O)O)cc1
numeric_readout: 1.78
//
chemical_structure: O=C(O)c1ccc(CNC(=O)c2cc(F)ccc2Oc2ccc(F)cc2)cc1
numeric_readout: 2.50
//
chemical_structure: C[C@H](NC(=O)c1cc(Cl)cnc1Oc1cccc(Cl)c1)c1ccc(C(=O)O)cc1
numeric_readout: 1.34
//
chemical_structure: C[C@H](NC(=O)c1cc(Cl)ccc1Oc1ccc(F)cc1)c1ccc(C(=O)O)cc1
numeric_readout: 1.58
//
chemical_structure: O=C(O)c1ccc(CNC(=O)c2cc(Cl)ccc2Oc2ccc(F)cc2)cc1
numeric_readout: 2.00
//
chemical_structure: C[C@H](NC(=O)c1cc(Cl)ccc1Oc1cccc(Cl)c1)c1ccc(C(=O)O)cc1
numeric_readout: 1.61
//
chemical_structure: O=C(O)c1ccc(CNC(=O)c2cc(F)cnc2Oc2ccc(F)cc2)cc1
numeric_readout: 2.76
//
chemical_structure: C[C@H](NC(=O)c1cc(Cl)cnc1Oc1ccccc1Cl)c1ccc(C(=O)O)cc1
numeric_readout: 1.97
//
chemical_structure: C[C@H](NC(=O)c1cc(Cl)cnc1Oc1cccc(OC(F)(F)F)c1)c1ccc(C(=O)O)cc1
numeric_readout: 3.25
//
chemical_structure: C[C@H](NC(=O)c1cc(Cl)cnc1Oc1ccc(Cl)cc1)c1ccc(C(=O)O)cc1
numeric_readout: 1.97
//
chemical_structure: CSc1cccc(Oc2ncc(Cl)cc2C(=O)N[C@@H](C)c2ccc(C(=O)O)cc2)c1
numeric_readout: 2.60
//
chemical_structure: Cc1cnc(Oc2ccc(F)cc2)c(C(=O)NCc2ccc(C(=O)O)cc2)c1
numeric_readout: 3.47
//
chemical_structure: COc1cccc(Oc2ncc(Cl)cc2C(=O)N[C@@H](C)c2ccc(C(=O)O)cc2)c1
numeric_readout: 2.53
//
chemical_structure: C[C@@H](NC(=O)c1cc(Cl)cnc1Oc1ccc(F)cc1)c1ccc(C(=O)O)cc1
numeric_readout: 3.08
//
chemical_structure: C[C@H](NC(=O)c1cc(Cl)cnc1Oc1cncc(Cl)c1)c1ccc(C(=O)O)cc1
numeric_readout: 2.14
//
chemical_structure: O=C(O)c1ccc(CNC(=O)c2cccc(OCc3nc4cc(F)ccc4s3)c2)cc1
numeric_readout: 2.57
//
chemical_structure: C[C@H](NC(=O)c1cc(Cl)cnc1Oc1ccc(F)cc1)c1ccc(C(=O)O)cc1
numeric_readout: 1.41
//
chemical_structure: O=C(NCc1ccc(C(=O)NS(=O)(=O)c2cccc(Cl)c2)cc1)c1cccc(OCc2nc3cc(F)ccc3s2)c1
numeric_readout: 2.48
//
chemical_structure: O=C(O)c1ccc(CNC(=O)c2cc(Cl)cnc2Oc2ccc(F)cc2)cc1
numeric_readout: 2.40
//
chemical_structure: C[C@H](NC(=O)c1cc(Cl)ccc1Oc1cccc(F)c1)c1ccc(C(=O)O)cc1
numeric_readout: 1.49
//
chemical_structure: C[C@H](NC(=O)c1cc(F)cnc1Oc1ccc(F)cc1)c1ccc(C(=O)O)cc1
numeric_readout: 2.16
//
chemical_structure: C[C@H](NC(=O)c1cc(Cl)cnc1Oc1cncc(F)c1)c1ccc(C(=O)O)cc1
numeric_readout: 2.24
//
chemical_structure: C[C@H](NC(=O)c1cc(Cl)cnc1Oc1cccc(C#N)c1)c1ccc(C(=O)O)cc1
numeric_readout: 1.56
//
chemical_structure: C[C@H](NC(=O)c1cc(Cl)cnc1Oc1cccc(F)c1)c1ccc(C(=O)O)cc1
numeric_readout: 1.21

* * *

# measurement_target: Prostaglandin E2 receptor EP4 subtype (Homo sapiens, UniProt P35408)
# Sequence (P35408 whole entry): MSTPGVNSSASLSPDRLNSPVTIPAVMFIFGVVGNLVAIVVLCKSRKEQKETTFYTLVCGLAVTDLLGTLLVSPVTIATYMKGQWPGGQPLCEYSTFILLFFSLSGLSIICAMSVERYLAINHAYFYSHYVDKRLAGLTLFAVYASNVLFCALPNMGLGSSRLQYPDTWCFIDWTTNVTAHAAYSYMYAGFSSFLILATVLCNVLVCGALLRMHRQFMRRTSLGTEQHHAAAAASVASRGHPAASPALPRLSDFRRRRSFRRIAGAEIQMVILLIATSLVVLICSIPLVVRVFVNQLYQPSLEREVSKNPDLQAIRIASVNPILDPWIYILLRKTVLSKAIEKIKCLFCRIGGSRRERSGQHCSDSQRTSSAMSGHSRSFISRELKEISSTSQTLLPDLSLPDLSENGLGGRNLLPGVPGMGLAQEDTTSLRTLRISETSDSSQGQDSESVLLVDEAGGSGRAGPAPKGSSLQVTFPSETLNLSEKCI
pKi: −log10 of the molar value.

chemical_structure: C[C@H](NC(=O)c1cc(Cl)cnc1Oc1cccc(F)c1)c1ccc(C(=O)O)cc1
measurement_target: Prostaglandin E2 receptor EP4 subtype (Homo sapiens, UniProt P35408)
pKi: 9.01

* * *

# method: Elimination half life in Beagle dog at 1 mg/kg, iv
# Type: ADME, organism-based, Canis lupus familiaris
# experimental_parameters: in vivo, read-out: beta t1/2 (converted)

chemical_structure: C[C@H](NC(=O)c1cc(Cl)cnc1Oc1cccc(F)c1)c1ccc(C(=O)O)cc1
half-life: 8.43 h

* * *

# method: Total clearance in cynomolgus monkey at 1 mg/kg, iv
# Assay type: ADME, organism-based, Macaca fascicularis
# experimental_parameters: in vivo
reported_endpoint: clearance (mL/min/kg)

chemical_structure: C[C@H](NC(=O)c1cc(Cl)cnc1Oc1cccc(F)c1)c1ccc(C(=O)O)cc1
numeric_readout: 5.31

* * *

# method: Apparent permeability from basolateral to apical side in human Caco2 cells
# Format: ADME, cell-based
# experimental_parameters: Caco-2
reported_endpoint: Papp B→A (×10⁻⁶ cm/s)

chemical_structure: C[C@H](NC(=O)c1cc(Cl)cnc1Oc1cccc(C#N)c1)c1ccc(C(=O)O)cc1
numeric_readout: 25.8

* * *

# method: Apparent permeability from apical to basolateral side in human Caco2 cells
# Type: ADME, cell-based
# experimental_parameters: Caco-2
reported_endpoint: Papp A→B (×10⁻⁶ cm/s)

compound: C[C@H](NC(=O)c1cc(Cl)cnc1Oc1cccc(C#N)c1)c1ccc(C(=O)O)cc1
endpoint_unit: ×10⁻⁶ cm/s
numeric_readout: 0.644

compound: O=C(O)c1ccc(CNC(=O)c2cc(F)cnc2Oc2ccc(F)cc2)cc1
endpoint_unit: ×10⁻⁶ cm/s
numeric_readout: 25.3

compound: C[C@H](NC(=O)c1cc(Cl)ccc1Oc1cccc(F)c1)c1ccc(C(=O)O)cc1
endpoint_unit: ×10⁻⁶ cm/s
numeric_readout: 41.9

compound: C[C@H](NC(=O)c1cc(Cl)cnc1Oc1cccc(F)c1)c1ccc(C(=O)O)cc1
endpoint_unit: ×10⁻⁶ cm/s
numeric_readout: 20.1

compound: C[C@@H](NC(=O)c1cc(Cl)cnc1Oc1ccc(F)cc1)c1ccc(C(=O)O)cc1
endpoint_unit: ×10⁻⁶ cm/s
numeric_readout: 25.3

compound: C[C@H](NC(=O)c1cc(F)cnc1Oc1ccc(F)cc1)c1ccc(C(=O)O)cc1
endpoint_unit: ×10⁻⁶ cm/s
numeric_readout: 30.2

compound: O=C(O)c1ccc(CNC(=O)c2cc(Cl)ccc2Oc2ccc(F)cc2)cc1
endpoint_unit: ×10⁻⁶ cm/s
numeric_readout: 51.4

compound: O=C(O)c1ccc(CNC(=O)c2cc(Cl)cnc2Oc2ccc(F)cc2)cc1
endpoint_unit: ×10⁻⁶ cm/s
numeric_readout: 20.1

compound: CC(C)(NC(=O)c1cc(F)cnc1Oc1ccc(F)cc1)c1ccc(C(=O)O)cc1
endpoint_unit: ×10⁻⁶ cm/s
numeric_readout: 36.3

compound: CCC(NC(=O)c1cc(F)cnc1Oc1ccc(F)cc1)c1ccc(C(=O)O)cc1 (racemic)
endpoint_unit: ×10⁻⁶ cm/s
numeric_readout: 20.1
